tested on: U2OS; experiment: Multiplex assay against U2OS; type: toxicity, cell-based; settings: human, 12 h, 10 µM, compound concentration 10 uM, replicate 1
Label T when Population Healthy Nuclei (%) >= 50%; otherwise F.

COc1cc2nccc(Oc3ccc(NC(=O)Nc4cc(C)on4)c(Cl)c3)c2cc1OC.O | T
C[C@@H](NCCCc1cccc(C(F)(F)F)c1)c1cccc2ccccc12.Cl [CINACALCET HYDROCHLORIDE] | T
OC1(c2ccc(Cl)cc2)CCN(Cc2c[nH]c3ccccc23)CC1 | F
C=CC(=O)Nc1cccc(C(=O)Nc2ccc(Nc3cc(-c4[nH]c(SC)nc4C)ccn3)cc2)c1 | T

###

system: U2OS; test: Multiplex assay against U2OS; assay type: toxicity, cell-based; settings: human, 48 h, 10 µM, compound concentration 10 uM, replicate 1
Lab note - cut at 9% for Population Hoechst High Intensity Objects (%): Y if strictly below, N if not.

CCOCCn1cc(C(=O)Nc2ccc(-n3nc(-c4cccnc4)cc3C(F)(F)F)cn2)ccc1=O [BI 1935] | N
Cc1nc(-c2ccc(-c3ccc(C(=O)N4CCc5cc6c(cc54)C4(CCN(C)CC4)CO6)cc3)c(C)c2)no1 [SB-224289] | N
CCn1c(=O)c(-c2ccc(Cl)cc2Cl)cc2cnc(Nc3ccc(N4CCNCC4)c(F)c3)nc21 | N
CC[C@H](C)C(=O)O[C@H]1C[C@@H](C)C=C2C=C[C@H](C)[C@H](CC[C@@H]3C[C@@H](O)CC(=O)O3)[C@H]21 [LOVASTATIN] | Y
CN1CCN(c2ccc(OC(F)(F)F)c(Nc3ncc4c(n3)-c3c(c(C(N)=O)nn3CCO)CC4)c2)CC1 [ONVANSERTIB] | Y
COc1cc2nccc(Oc3ccc(NC(=O)Nc4cc(C)on4)c(Cl)c3)c2cc1OC.O | N
CC(C)(O)CNc1ncc(-c2ccnc(Nc3ccnc(Cl)c3)n2)c(CC2CC2)n1 | N
CN1CCCC(n2nc(Cc3ccc(Cl)cc3)c3ccccc3c2=O)CC1.Cl (configuration not stated) [AZELASTINE HYDROCHLORIDE] | N
Cc1cc(C)cc(-c2cnc3cc(Cl)c(-c4cccc(O)c4)cc3c2OCCCN)c1 | N
C[C@@]1(C(=O)Nc2ccc(F)nc2)CCCN1c1nc(Nc2cc(C3CC3)n[nH]2)c2cccn2n1 [BMS-754807] | N
COc1ncc(-c2ccc3nccc(-c4ccnnc4)c3c2)cc1NS(=O)(=O)c1ccc(F)cc1F [OMIPALISIB] | N
CNCc1ccccc1-c1csc([C@H](C)Nc2nc(C)nc3cc(OC)c(OC)cc23)c1 [BAY-294] | N
c1cn2cc(-c3ccc4cn[nH]c4c3)nc(Nc3ccc(N4CCOCC4)cc3)c2n1 [ENTOSPLETINIB] | N
OC1(c2ccc(Cl)cc2)CCN(Cc2c[nH]c3ccccc23)CC1 | N
C[C@@H](NCCCc1cccc(C(F)(F)F)c1)c1cccc2ccccc12.Cl [CINACALCET HYDROCHLORIDE] | Y
CNc1nc(NCc2ccc(NS(C)(=O)=O)cc2Cl)cc(-c2ccccn2)n1 | Y
COc1cc(-n2cnc3cc(-c4ccc(Cl)cc4)sc3c2=O)ccc1OCCN1CCCC1 | N
CN(C)C(=O)/C(C#N)=C/c1ccc(-c2nc3cnc4[nH]ccc4c3n2C2CCCCC2)o1 | N
CN1CCN(CCOc2cc(OC3CCOCC3)c3c(Nc4c(Cl)ccc5c4OCO5)ncnc3c2)CC1 [SARACATINIB] | Y
O=C1NCN(c2ccccc2)C12CCN(CCCOc1ccc(F)cc1)CC2 [SPIRAMIDE] | N
Cc1[nH]c(/C=C2\C(=O)Nc3ccc(S(=O)(=O)N(C)c4cccc(Cl)c4)cc32)c(C)c1C(=O)N1CCN(C)CC1 | Y
NC(=O)Nc1cc(-c2cccc(F)c2)sc1C(=O)N[C@H]1CCCNC1 [AZD-7762] | N
Cn1cc(-c2[nH]c3cc(NC(=O)[C@H](N)C4CCCCC4)cc4c3c2C=NNC4=O)cn1 | N
COc1cccc([C@@H](C)NCCCc2ccccc2Cl)c1.Cl [TECALCET HYDROCHLORIDE] | N
CN1CCC[C@@H]1CCO[C@](C)(c1ccccc1)c1ccc(Cl)cc1.O=C(O)/C=C/C(=O)O [CLEMASTINE FUMARATE] | N
Cc1csc2c(N[C@@H](C)CN3CCN(S(=O)(=O)c4ccc(Cl)c(Cl)c4)CC3)ncnc12 | Y
CN(C)C(=O)N[C@H]1CC[C@H](CCN2CCN(c3cccc(Cl)c3Cl)CC2)CC1.Cl [CARIPRAZINE HYDROCHLORIDE] | N
CC(C)NCC(O)COc1ccc(CCOCC2CC2)cc1.Cl (configuration not stated) [BETAXOLOL HYDROCHLORIDE] | Y
C=CC(=O)Nc1cccc(C(=O)Nc2ccc(Nc3cc(-c4[nH]c(SC)nc4C)ccn3)cc2)c1 | Y
Cl.N#Cc1ccc2[nH]cc(CCCCN3CCN(c4ccc5oc(C(N)=O)cc5c4)CC3)c2c1 [VILAZODONE HYDROCHLORIDE] | N

###

tested on: U2OS; assay: Multiplex assay against U2OS; type: toxicity, cell-based; details: human, 12 h, 10 µM, compound concentration 10 uM, replicate 1
Assay metric: Population Hoechst High Intensity Objects (%)

COc1ncc(-c2ccc3nccc(-c4ccnnc4)c3c2)cc1NS(=O)(=O)c1ccc(F)cc1F | 6
CC[C@H](C)C(=O)O[C@H]1C[C@@H](C)C=C2C=C[C@H](C)[C@H](CC[C@@H]3C[C@@H](O)CC(=O)O3)[C@H]21 | 10
C=CC(=O)Nc1cccc(C(=O)Nc2ccc(Nc3cc(-c4[nH]c(SC)nc4C)ccn3)cc2)c1 | 6
CC(C)(O)CNc1ncc(-c2ccnc(Nc3ccnc(Cl)c3)n2)c(CC2CC2)n1 | 14
Cn1cncc1[C@@](O)(COc1ccc(C#N)cc1-c1ccc(OC(F)(F)F)cc1)c1ccc(C#N)cc1 | 3
Cc1cc(C)cc(-c2cnc3cc(Cl)c(-c4cccc(O)c4)cc3c2OCCCN)c1 | 14
CN(C)CC#Cc1ccc(OCCCc2sc(N3CCc4cccc(C(=O)Nc5nc6ccccc6s5)c4C3)nc2C(=O)O)c(F)c1 | 6
C[C@@H](NCCCc1cccc(C(F)(F)F)c1)c1cccc2ccccc12.Cl [CINACALCET HYDROCHLORIDE] | 9

###

Reported Population Hoechst High Intensity Objects (%) values for the following molecules.
tested on: Fibroblast; assay: Multiplex assay against human fibroblast; type: toxicity, cell-based; conditions: 48 h, 10 µM, compound concentration 10 uM, replicate 2
Assay metric: Population Hoechst High Intensity Objects (%)

Cc1cc(C)cc(-c2cnc3cc(Cl)c(-c4cccc(O)c4)cc3c2OCCCN)c1 | 31
CN1CCN(CCOc2cc(OC3CCOCC3)c3c(Nc4c(Cl)ccc5c4OCO5)ncnc3c2)CC1 | 27
CNCc1ccccc1-c1csc([C@H](C)Nc2nc(C)nc3cc(OC)c(OC)cc23)c1 | 31
Cc1c(-c2ccc(O)cc2)n(Cc2ccc(OCCN3CCCCCC3)cc2)c2ccc(O)cc12 | 35

###

Reported Population Membrane Permeable-Phenotype (%) values for the following molecules.
system: U2OS; assay: Multiplex assay against U2OS; format: toxicity, cell-based; settings: human, 48 h, 1 µM, compound concentration 1 uM, replicate 1
Assay metric: Population Membrane Permeable-Phenotype (%)

CN1CCC[C@@H]1CCO[C@](C)(c1ccccc1)c1ccc(Cl)cc1.O=C(O)/C=C/C(=O)O [CLEMASTINE FUMARATE] | 4
Cc1c(-c2ccc(O)cc2)n(Cc2ccc(OCCN3CCCCCC3)cc2)c2ccc(O)cc12 | 2
CC(C)(O)CNc1ncc(-c2ccnc(Nc3ccnc(Cl)c3)n2)c(CC2CC2)n1 | 9
CN(C)C(=O)N[C@H]1CC[C@H](CCN2CCN(c3cccc(Cl)c3Cl)CC2)CC1.Cl [CARIPRAZINE HYDROCHLORIDE] | 0
COc1cc(-n2cnc3cc(-c4ccc(Cl)cc4)sc3c2=O)ccc1OCCN1CCCC1 | 7
O=C1NCN(c2ccccc2)C12CCN(CCCOc1ccc(F)cc1)CC2 [SPIRAMIDE] | 1
CC(C)NCC(O)COc1ccc(CCOCC2CC2)cc1.Cl (stereo not drawn) [BETAXOLOL HYDROCHLORIDE] | 2
COc1ncc(-c2ccc3nccc(-c4ccnnc4)c3c2)cc1NS(=O)(=O)c1ccc(F)cc1F | 7

###

system: Fibroblast; assay: Multiplex assay against human fibroblast; format: toxicity, cell-based; settings: 24 h, 1 µM, compound concentration 1 uM, replicate 1
Assay metric: Population Mitochondria Different-Phenotype (%)

CN(C)C(=O)/C(C#N)=C/c1ccc(-c2nc3cnc4[nH]ccc4c3n2C2CCCCC2)o1 | 5
CN1CCN(CCOc2cc(OC3CCOCC3)c3c(Nc4c(Cl)ccc5c4OCO5)ncnc3c2)CC1 | 6
Cc1nc(-c2cn3c(n2)-c2ccc(-c4cnn(C(C)(C)C(N)=O)c4)cc2OCC3)n(C(C)C)n1 | 7
COc1ncc(-c2ccc3nccc(-c4ccnnc4)c3c2)cc1NS(=O)(=O)c1ccc(F)cc1F | 2
C=CC(=O)Nc1cccc(C(=O)Nc2ccc(Nc3cc(-c4[nH]c(SC)nc4C)ccn3)cc2)c1 | 3
CNCc1ccc(-c2cc(-c3nc(-c4ccc(S(=O)(=O)C(C)C)cc4)cnc3N)on2)cc1 | 0
COc1cc(-n2cnc3cc(-c4ccc(Cl)cc4)sc3c2=O)ccc1OCCN1CCCC1 | 5
CC(C)NCC(O)COc1ccc(CCOCC2CC2)cc1.Cl (centres undefined) [BETAXOLOL HYDROCHLORIDE] | 4
Cc1csc2c(N[C@@H](C)CN3CCN(S(=O)(=O)c4ccc(Cl)c(Cl)c4)CC3)ncnc12 | 33
CN1CCN(c2ccc(OC(F)(F)F)c(Nc3ncc4c(n3)-c3c(c(C(N)=O)nn3CCO)CC4)c2)CC1 | 7
COc1cc2nccc(Oc3ccc(NC(=O)Nc4cc(C)on4)c(Cl)c3)c2cc1OC.O | 42
CN1CCCC(n2nc(Cc3ccc(Cl)cc3)c3ccccc3c2=O)CC1.Cl (centres undefined) [AZELASTINE HYDROCHLORIDE] | 11
CC[C@H](C)C(=O)O[C@H]1C[C@@H](C)C=C2C=C[C@H](C)[C@H](CC[C@@H]3C[C@@H](O)CC(=O)O3)[C@H]21 | 15
Cc1c(-c2ccc(O)cc2)n(Cc2ccc(OCCN3CCCCCC3)cc2)c2ccc(O)cc12 | 8
CNc1nc(NCc2ccc(NS(C)(=O)=O)cc2Cl)cc(-c2ccccn2)n1 | 7
Cl.N#Cc1ccc2[nH]cc(CCCCN3CCN(c4ccc5oc(C(N)=O)cc5c4)CC3)c2c1 [VILAZODONE HYDROCHLORIDE] | 8
Cc1[nH]c(/C=C2\C(=O)Nc3ccc(S(=O)(=O)N(C)c4cccc(Cl)c4)cc32)c(C)c1C(=O)N1CCN(C)CC1 | 14
NC(=O)Nc1cc(-c2cccc(F)c2)sc1C(=O)N[C@H]1CCCNC1 | 1
